- Procedure Details: MTT cytotoxicity / cell survival in murine fibroblast line L20B
- Format: cell-based
- Assay Conditions: mouse; L20B, 48 h; read-out: CC50 (cytotoxic concentration for 50% cells)

{"Compound Smiles": "O=c1oc2cc(O)cc(O)c2c(O)c1-c1coc2c1c(=O)oc1cc(O)cc(O)c12", "CC50 at 48 h [mM]": 9}
